system: OVCAR-5 ovarian; test: NCI tumour cell line growth inhibition, 48 h

[
  {
    "compound": "CC1CCC2C(C(=O)O[C@H]3C4CCO[C@@H](OC5OC(CO)C(O)C(O)C5O)C4[C@@]4(CO)O[C@@H]34)=CO[C@@H](OC3OC(CO)C(O)C(O)C3O)C12 (stereo partly drawn)",
    "TGI": "> 10 µM"
  },
  {
    "compound": "CN(CCCCN(C)CCc1ccc(Cl)c(Cl)c1)CCCCN1CCCC1",
    "TGI": "5.54 µM"
  },
  {
    "compound": "C1=Cc2nc1c(-c1ccncc1)c1ccc([n-]1)c(-c1ccncc1)c1nc(c(-c3ccncc3)c3ccc([n-]3)c2-c2ccncc2)C=C1.[Zn+2]",
    "TGI": "> 100 µM"
  },
  {
    "compound": "CCCN(CCC)c1ccc(/C=N/NC(=O)c2cccnc2)c(Cl)c1",
    "TGI": "4.73 µM"
  },
  {
    "compound": "O=C(O)c1ccc(C(c2c(O)c3ccccc3oc2=O)c2c(O)c3ccccc3oc2=O)cc1",
    "TGI": "> 100 µM"
  },
  {
    "compound": "N#CC(c1cc2c(cc1Br)OCO2)N1CCOCC1 (stereo not drawn)",
    "TGI": "> 100 µM"
  },
  {
    "compound": "Cc1cccc(-c2cc(=S)c3cc(N4CCCC4)ccc3[nH]2)c1",
    "TGI": "> 100 µM"
  },
  {
    "compound": "COc1cc(-c2cc(-c3nc4ccc(Cl)cc4[nH]3)[nH]n2)cc(OC)c1OC",
    "TGI": "30.2 µM"
  },
  {
    "compound": "CCO[C@]12C[C@H](OC)[C@@]3(O)CC(C1[C@H]3O)C13C4C2[C@H](OC)C1[C@](COC)(CN4CC)[C@H](O)C[C@@H]3OC (stereo partly drawn)",
    "TGI": "> 100 µM"
  },
  {
    "compound": "O=[N+]([O-])c1cc(Cl)cc2cc(Cl)cnc12",
    "TGI": "> 100 µM"
  },
  {
    "compound": "C[C@@H]1C=C2C(=O)O[C@@H]3CC[C@H](C1)[C@]23O",
    "TGI": "10.8 µM"
  },
  {
    "compound": "O=C1OC(O)C(Oc2ccc(Cl)cc2)=C1Cl (stereo not drawn)",
    "TGI": "> 100 µM"
  },
  {
    "compound": "CC#C[I+]c1ccccc1",
    "TGI": "77.8 µM"
  },
  {
    "compound": "COc1ccc(C2=NN(C(C)=O)C(c3cn(-c4ccccc4)nc3-c3ccc(Cl)cc3)C2)cc1 (stereo not drawn)",
    "TGI": "> 100 µM"
  },
  {
    "compound": "COP1(=O)Oc2ccccc2C(=O)C(C(F)(F)F)(C(F)(F)F)O1 (stereo not drawn)",
    "TGI": "> 100 µM"
  },
  {
    "compound": "Cn1c2ccccc2c(=NNc2ccccc2C(=O)O)c2ccccc21",
    "TGI": "85 µM"
  },
  {
    "compound": "CCn1cnc2c(Nc3cccc(Cl)c3)nc(N[C@@H]3CCCC[C@@H]3N)nc21",
    "TGI": "7.92 µM"
  },
  {
    "compound": "CCCCN1C(=O)NC(Cc2ccccc2)C1=O (stereo not drawn)",
    "TGI": "> 100 µM"
  },
  {
    "compound": "O=C(OC(=C(c1ccccc1)c1ccccc1)N1CCCC1=S)C(c1ccccc1)c1ccccc1",
    "TGI": "> 10 µM"
  },
  {
    "compound": "CN(C)c1nc(-c2ccccc2)c(C(=O)c2c[nH]c3ccccc23)s1",
    "TGI": "> 100 µM"
  },
  {
    "compound": "O=C1CC2(CCNCC2)C(=O)N1N1CCCC1",
    "TGI": "> 100 µM"
  },
  {
    "compound": "OCCN(CCO)c1ccc2c(c1)Cc1ccccc1-2",
    "TGI": "> 100 µM"
  },
  {
    "compound": "CCOC(=O)c1c(C(F)(F)F)n([O-])c2ccc(OC)cc2[n+]1=O",
    "TGI": "48.6 µM"
  },
  {
    "compound": "O=C(CCc1cccc(O)c1)NCCc1ccc(O)cc1",
    "TGI": "> 100 µM"
  },
  {
    "compound": "NCCNC(=S)S",
    "TGI": "> 100 µM"
  },
  {
    "compound": "c1cncc(-c2ncc3cccnc3n2)c1",
    "TGI": "> 100 µM"
  },
  {
    "compound": "COc1ccc2c(c1)CC[C@@H]1[C@@H]2CC[C@]2(C)C(c3ccco3)=C(C=O)C[C@@H]12",
    "TGI": "94.1 µM"
  },
  {
    "compound": "CCCc1nc2c(C)cc(-c3nc4ccccc4n3C)cc2n1Cc1ccc(-c2ccccc2C(=O)O)cc1",
    "TGI": "> 100 µM"
  }
]

The measured values listed here are drawn from PubChem BioAssay (NCI).
